- assaySystem: RBP-N/RBP-Trunc mixed heterodimer (Thermotoga maritima)
- Construct: separately expressed halves mixed equimolar in vitro; E. coli BL21(DE3); His tag likely; dimer of heterodimers
- Sequence (Q9X053 entry or part of it): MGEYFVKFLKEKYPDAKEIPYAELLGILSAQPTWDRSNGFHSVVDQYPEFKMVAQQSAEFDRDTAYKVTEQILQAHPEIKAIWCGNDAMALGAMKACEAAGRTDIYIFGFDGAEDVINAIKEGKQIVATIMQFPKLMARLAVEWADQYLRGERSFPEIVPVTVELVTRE
- Sequence (Q9X053 entry or part of it): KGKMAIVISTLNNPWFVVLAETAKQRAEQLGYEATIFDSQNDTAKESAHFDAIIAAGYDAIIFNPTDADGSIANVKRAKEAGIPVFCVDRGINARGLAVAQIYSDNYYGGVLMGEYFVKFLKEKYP
- experimentNotes: isothermal titration calorimetry
- experimentalContext: 10 mM sodium phosphate, 50 mM NaCl, pH 7.8, 20°C; 100 μM protein; 1:1 model
endpoint: Kd (µM)
I only need the number, in µM, no unit after it.

What is its Kd for RBP-N/RBP-Trunc mixed heterodimer (Thermotoga maritima)? Entry: OC1OC[C@@H](O)[C@@H](O)[C@H]1O (stereo partly shown)
6.8
